assay: Multicenter, open-label, Phase 1a/b study of HC-7366 in subjects with advanced solid tumors (safety, PK); assay type: in vivo; conditions: human, plasma, po, 125 mg, human, single oral dose 125 mg (N = 6), Cycle 1 Day 1, geometric mean
Test readout: Cmax (ng/mL)
Unit ng/mL implied. Number only.

Which Cmax value is on record for CNC(=O)c1ncn2cc(-c3c(F)ccc(NS(=O)(=O)c4cc(Cl)cnc4OC)c3F)ncc12 ?
18800

----------
experiment: Multicenter, open-label, Phase 1a/b study of HC-7366 in subjects with advanced solid tumors (safety, PK); format: in vivo; details: human, plasma, po, 20 mg, human, multiple once daily oral 20 mg (N = 3), Cycle 1 Day 21, geometric mean; read-out: AUC0-last
Test readout: AUC(0-t) (ng·h/mL)
Unit ng·h/mL implied. Number only.

Which AUC(0-t) value is on record for CNC(=O)c1ncn2cc(-c3c(F)ccc(NS(=O)(=O)c4cc(Cl)cnc4OC)c3F)ncc12 [HC-7366] ?
41900
